- PROCEDURE_SUMMARY: Determination of pharmacokinetic parameters in rats
- CONDITION_DETAILS: male, Wistar (RccHan:WIST), rat, in vivo, po, 2 mg/kg, pH 2.1
RESULT_TYPE: AUC
The reply should consist of the numeric value with the unit placed after it.

Ask | Dear colleague, I am looking for the recorded AUC of the following compound: Cc1nc(C)n(CC(=O)N2CCN(c3sc(C(F)(F)F)nc3-c3cnc(C(F)(F)F)nc3)C[C@H]2C)n1
Reply | 14000 ng·h/mL

* * *

- PROCEDURE_SUMMARY: Human liver microsome assay (metabolic stability)
- Format: in vitro ADME
- CONDITION_DETAILS: human liver microsomes 0.5 mg/mL, compound 1 μM, 37° C., pH 7.4, NADPH-regenerating system
- Method: Incubation with human liver microsomes was performed to assess metabolic stability at a single compound concentration of 1 μM. […] Natural logarithm of remaining amount of compound was plotted as function of time and the slope of the line determined. […]
We'd kindly ask you to apply these microsomal CLint at 1 µM classes: band 1 (below 8 µL/min/mg), band 2 (8 µL/min/mg to below 50 µL/min/mg), band 3 (50 µL/min/mg or more)

>  <MOLECULE>
Cc1nc(C)n(CC(=O)N2CCN(c3sc(C(F)(F)F)nc3-c3cnc(N4CCCC4)nc3)C[C@H]2C)n1

>  <CAT>
band 3

$$$$
>  <MOLECULE>
CC[C@@H]1CN(c2sc(C(F)(F)F)nc2-c2cnc(C(F)(F)F)nc2)CCN1C(=O)Cn1nc(C)nc1C

>  <CAT>
band 1

$$$$
>  <MOLECULE>
CCOc1ccc(-c2nc(C(F)(F)F)sc2N2CCN(C(=O)Cn3nc(C)nc3C)[C@H](C)C2)cn1

>  <CAT>
band 3

$$$$

Ask | Which band does CCOc1ncc(-c2nc(C(F)(F)F)sc2N2CCN(C(=O)Cn3nc(CC)nc3C)[C@H](C)C2)cn1 (single isomer, unassigned) fall in?
Reply | band 3

* * *

- ASSAY_SYSTEM: human CXCR3A (Homo sapiens)
- Construct: expressed in transfected cells; host or cells: CHO-K1
- Sequence (P49682 1-368): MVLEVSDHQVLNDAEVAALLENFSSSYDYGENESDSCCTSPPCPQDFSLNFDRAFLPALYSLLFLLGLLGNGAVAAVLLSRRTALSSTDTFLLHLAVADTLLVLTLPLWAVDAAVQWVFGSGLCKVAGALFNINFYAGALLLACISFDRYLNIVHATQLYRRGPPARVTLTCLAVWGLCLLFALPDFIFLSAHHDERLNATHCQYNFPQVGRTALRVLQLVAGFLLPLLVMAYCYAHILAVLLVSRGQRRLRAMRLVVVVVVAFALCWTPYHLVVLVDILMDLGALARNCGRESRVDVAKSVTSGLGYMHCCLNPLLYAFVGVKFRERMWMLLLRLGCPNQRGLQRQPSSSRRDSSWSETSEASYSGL
- PROCEDURE_SUMMARY: FLIPR assay (CXCL10-induced calcium signal in CHO-K1 cells)
- Assay type: cell-based
- CONDITION_DETAILS: CHO-K1 cells expressing human CXCR3A coupled to Galpha(16); CXCL10 agonist 20 nM; mean values
- Method: A) FLIPR assay: The bioactivity of compounds is tested in a fluorometric imaging plate reader (FLIPR: Molecular Devices) using engineered CHO-K1 cells expressing the human CXCR3A (GenBank: AY242128) coupled to a G protein (Galpha(16)). […] Following basal readings, 10 microliter CXCL10 agonist at a concentration of 20 nM (from Peprotech) is added, again using the FLIPR instrument. Changes in fluorescence are monitored before and after addition of the test compounds. […]
RESULT_TYPE: IC50 (nM)
Numbers only, in nM.

Record excerpt, results attached:
>  <COMPOUND>
Cc1nc(CO)nn1CC(=O)N1CCN(c2sc(C(F)(F)F)nc2-c2cnc(C(F)(F)F)nc2)C[C@H]1C [Example 44]

>  <MEASURED_NUMBER>
5.1

$$$$
>  <COMPOUND>
CCOc1ncc(-c2nc(C(F)(F)F)sc2N2CCN(C(=O)Cn3nc(CC)nc3C)[C@H](C)C2)cn1 (single isomer, unassigned) [Example 18]

>  <MEASURED_NUMBER>
3.1

$$$$
>  <COMPOUND>
Cc1nc(C)n(CC(=O)N2CCN(c3sc(C(F)(F)F)nc3-c3cnc(OC4COC4)nc3)C[C@H]2C)n1 [Example 30]

>  <MEASURED_NUMBER>
22

$$$$

# next compound below
Ask | Suppose we examine the compound Cc1nc(C)n(CC(=O)N2CCN(c3sc(C(F)(F)F)nc3-c3ccc(Cl)cc3)C[C@H]2C)n1 [Example 7] ; what IC50 value has been reported?
Reply | 9.3
